Type: in vivo, human
Conditions: human, plasma, 10 mg
measurement-name: AUC(0-t) (ng·h/mL)
Dear colleague, please return just the value in ng·h/mL, with no unit written.

Ask: Supply reported AUC(0-t) belonging to this compound: Br.Cc1ccc(Sc2ccccc2N2CCNCC2)c(C)c1 [Vortioxetine]
Reply: 222

* * *

Assay type: in vivo, human
Conditions: human, plasma, 40 mg
measurement-name: Cmax (ng/mL)
Dear colleague, please return just the value in ng/mL, with no unit written.

Ask: Supply reported Cmax belonging to this compound: COc1ccc2[nH]c([S+]([O-])Cc3ncc(C)c(OC)c3C)nc2c1 (stereo not shown)
Reply: 550

* * *

Assay type: in vivo, human
Details: human, plasma, 10 mg
measurement-name: Cmax (ng/mL)
Dear colleague, please return just the value in ng/mL, with no unit written.

Ask: Supply reported Cmax belonging to this compound: "Br.Cc1ccc(Sc2ccccc2N2CCNCC2)c(C)c1"
Reply: 4.52

Values were extracted from paper PMC3775155.
